# protocol description: protein stability index of a GFP-peptide fusion (yeast GPS) (PSI 1-4); higher = more stable; sorted into four equal gates, so the index is relative within each strain
# condition details: san1∆
readout kind: protein stability index
Please respond with just the number, no unit label.

{"biosequence": "DSKGSLYSVKFAPAHLG [YGL100W/SEH1]", "result": 2.59}
{"biosequence": "FLFQNINFERIDEVFSW [GRR1]", "result": 2.47}
{"biosequence": "FEIDGDVIHFEDSSILQ [PCI8]", "result": 3.04}
{"biosequence": "SLVSTQSSSSTRSHEYG [REC8]", "result": 2.72}
{"biosequence": "GEKKVGSNGELFGGRHY [SWP82]", "result": 3.73}

Task item: State its protein stability index for this sequence: TSSAPAQNQGMFGAKPA [YGL172W/NUP49]
Reply: 1.92

Task item: State its protein stability index for this sequence: HWNLPGERIFNKIRNLE [SIR2]
Reply: 3.2

* * *

// values below are reported protein stability index
# protocol description: protein stability index of a GFP-peptide fusion (yeast GPS) (PSI 1-4); higher = more stable; sorted into four equal gates, so the index is relative within each strain
# condition details: san1∆
Please respond with just the number, no unit label.

Below, each entry is followed by its recorded protein stability index result.
{"biosequence": "GQKLLAIKYGYEDSGST [SRB4]", "protein stability index": 2.53}
{"biosequence": "DRLILDLKLPPMDAYLK [SNU114]", "protein stability index": 3.01}
{"biosequence": "QKTVFDELCKLVTCEGS [SRP54]", "protein stability index": 1.25}

Task item: State its protein stability index for this sequence: CHLYSQRMHAIHEIDER [NNF1]
Reply: 1.8

Task item: State its protein stability index for this sequence: PVGSYEREQCRAGGAAA [PRE7]
Reply: 3.32

Task item: State its protein stability index for this sequence: LLKHPFKAIHGSQLRLS [YCS4]
Reply: 1.64

Task item: State its protein stability index for this sequence: RNESLKNNSSIRNVIMS [SRB8]
Reply: 1.87

Task item: State its protein stability index for this sequence: DAFNMLSLTTVPCDRIE [SNF6]
Reply: 2.43

Task item: State its protein stability index for this sequence: DDMVEYEDGTPATTSQM [CYT1]
Reply: 3.02

Task item: State its protein stability index for this sequence: KLKNENTDLKDIIQGNP [PCI8]
Reply: 2.75

Task item: State its protein stability index for this sequence: FVTQFRHLRRTGKVSEF [RET1]
Reply: 3.07

Task item: State its protein stability index for this sequence: IAKLSVIPIRRGYWGTN [RPS2]
Reply: 1.93

Task item: State its protein stability index for this sequence: TKRLGTPESVKPANASH [RGR1]
Reply: 2.26

Task item: State its protein stability index for this sequence: VIPIRRGYWGTNLGQPH [RPS2]
Reply: 1.91

Task item: State its protein stability index for this sequence: SYVVPRLYLKDQTNHIE [ECM29]
Reply: 2.83

Task item: State its protein stability index for this sequence: VNADDDDFMHSETREKE [RPB4]
Reply: 2.35

Task item: State its protein stability index for this sequence: FVNGVATSFSRKKARTF [FAS2]
Reply: 1.22

Task item: State its protein stability index for this sequence: YQDIEGGFEDVEEYTWS [RPB2]
Reply: 3.49

Task item: State its protein stability index for this sequence: AFETHYRRLFAKRLIHG [CDC53]
Reply: 2.8

Task item: State its protein stability index for this sequence: LSILNEIKKVTQIVAKF [SIN4]
Reply: 2.37

Task item: State its protein stability index for this sequence: ETIQADLNHVTEELQTQ [SMC2]
Reply: 3.02

* * *

// values below are reported protein stability index
# protocol description: protein stability index of a GFP-peptide fusion (yeast GPS) (PSI 1-4); higher = more stable; sorted into four equal gates, so the index is relative within each strain
# condition details: ubr1∆
Please respond with just the number, no unit label.

Below, each entry is followed by its recorded protein stability index result.
{"biosequence": "KIADNISKDENEDQFLE [YDL116W/NUP84]", "result": 3.33}
{"biosequence": "MSGSLSRGNGGKKVLNK [POP1]", "result": 2.97}
{"biosequence": "QQQQMQQQQQQQQQQQN [SSN2]", "result": 2.83}

Task item: State its protein stability index for this sequence: AQFVSNKQYHQANSNLT [NUT1]
Reply: 3.23

Task item: State its protein stability index for this sequence: VPAVVDDPLENMFGDYS [SNF6]
Reply: 3.35

Task item: State its protein stability index for this sequence: NNGLPMKNKAETTTEED [ITC1]
Reply: 3.03

Task item: State its protein stability index for this sequence: SSRLEFVKGISRDIKAL [YML103C/NUP188]
Reply: 1.62

* * *

// values below are reported protein stability index
# protocol description: protein stability index of a GFP-peptide fusion (yeast GPS) (PSI 1-4); higher = more stable; sorted into four equal gates, so the index is relative within each strain
# condition details: pdr5∆
Please respond with just the number, no unit label.

{"biosequence": "ASDMSDEDIITIFKYLT [CDC53]", "protein stability index": 3.09}

Task item: State its protein stability index for this sequence: NVANVSGSTEKAFKICE [SIR3]
Reply: 2.91

Task item: State its protein stability index for this sequence: LELQVAKTFIDLESSSP [RPS7B]
Reply: 3.2

Task item: State its protein stability index for this sequence: ALHYLVPFIIAAMVIMH [COB]
Reply: 1.29

Task item: State its protein stability index for this sequence: NEPLSEIEIEGVMSLLQ [YAR002W/NUP60]
Reply: 3.32

Task item: State its protein stability index for this sequence: FDKDLERDTFSDFTFPE [DIS3]
Reply: 1.88

Task item: State its protein stability index for this sequence: VLCNSNISKSRAKPVTN [RRP6]
Reply: 2.67

Task item: State its protein stability index for this sequence: GNDAKPAKVEDVQKSSD [YLR335W/NUP2]
Reply: 3.2

Task item: State its protein stability index for this sequence: FYSTNSQYFKFKNDFNS [RPN9]
Reply: 2.11

Task item: State its protein stability index for this sequence: RANLRKYREGQVLFQGL [POP1]
Reply: 2.31

Task item: State its protein stability index for this sequence: RTSTRGRGRGRGRGRGR [SNF2]
Reply: 3.17

Task item: State its protein stability index for this sequence: NGKTRTLENTLKAAFVA [RPS2]
Reply: 2.8

Task item: State its protein stability index for this sequence: QKKNFLFKPLNKTLTLD [ARP7]
Reply: 2.45

Task item: State its protein stability index for this sequence: ISDYQQLESIYFRILLP [SWI1]
Reply: 2.33

Task item: State its protein stability index for this sequence: TIVLSLNVKCTRNPDAP [RPC40]
Reply: 2.14

Task item: State its protein stability index for this sequence: QIGQVPLAPAPINLPPQ [SNF5]
Reply: 2.47

Task item: State its protein stability index for this sequence: FSPDGHIFQVEYALEAV [PRE6]
Reply: 3.07

Task item: State its protein stability index for this sequence: DKKQQTIDEQSQISPEK [RPN1]
Reply: 3.46

Task item: State its protein stability index for this sequence: ETIQADLNHVTEELQTQ [SMC2]
Reply: 3.21

* * *

# protocol description: protein stability index of a GFP-peptide fusion (yeast GPS) (PSI 1-4); higher = more stable; sorted into four equal gates, so the index is relative within each strain
# condition details: ubr1∆
// values below are reported protein stability index
Please respond with just the number, no unit label.

{"biosequence": "GVLYQGNIQISEYNFLE [DIS3]", "protein stability index": 2.96}
{"biosequence": "ITSGGFLLKAYINVSRG [SRB5]", "protein stability index": 2.53}
{"biosequence": "LVNGFSQSQQKLLKEKV [MED2]", "protein stability index": 2.61}
{"biosequence": "LRSKLFQFKLLQSNSKL [SMC4]", "protein stability index": 2.23}

Task item: State its protein stability index for this sequence: DKLEKVTHDCYRVTLES [RPC34]
Reply: 3.12

Task item: State its protein stability index for this sequence: EFNFTNLQAKPLVGKPK [YAR002W/NUP60]
Reply: 2.25

Task item: State its protein stability index for this sequence: QLVEITEQIKMRILSND [SRB8]
Reply: 2.48

Task item: State its protein stability index for this sequence: KKVNGTSYKKWSFDLPE [PRP8]
Reply: 3.35

Task item: State its protein stability index for this sequence: NKQYHQANSNLTLLERK [NUT1]
Reply: 2.83

* * *

# protocol description: protein stability index of a GFP-peptide fusion (yeast GPS) (PSI 1-4); higher = more stable; sorted into four equal gates, so the index is relative within each strain
# condition details: doa10∆
// values below are reported protein stability index
Please respond with just the number, no unit label.

Task item: State its protein stability index for this sequence: RITKSNEKSQAEQEKAK [LRP1]
Reply: 1.9

Task item: State its protein stability index for this sequence: QTATQLLERGRLRKRVT [SMC2]
Reply: 3.04

Reference source for all entries: the supplement of paper PMC9732359
